Assign Fold Increase to each entry below.
Tested on: E. coli cells transcribing antisense RNA to rplL and rplJ (AS-rplL/J)
Experiment: microbe, parasite or virus in culture
Assay type: cell-based
Settings: IC50 without IPTG vs IC50 with 400 μM IPTG

# molecule_smiles, Fold Increase
rows = [
    ("CN(C)[C@@H]1C(O)=C(C(N)=O)C(=O)[C@@]2(O)C(O)=C3C(=O)c4c(O)cccc4[C@@](C)(O)[C@H]3C[C@@H]12", 109),
]

Can you give me Fold Increase for all of these, one by one?
1. O=C(N[C@H](CO)[C@H](O)c1ccc([N+](=O)[O-])cc1)C(Cl)Cl
2. CN(C)c1ccc(O)c2c1C[C@H]1C[C@H]3[C@H](N(C)C)C(O)=C(C(N)=O)C(=O)[C@@]3(O)C(O)=C1C2=O
3. C[C@H]1c2cccc(O)c2C(=O)C2=C(O)[C@]3(O)C(=O)C(C(N)=O)=C(O)[C@@H](N(C)C)[C@@H]3[C@@H](O)[C@@H]21
4. CN[C@H](CC(C)C)C(=O)N[C@H]1C(=O)N[C@@H](CC(N)=O)C(=O)N[C@H]2C(=O)N[C@H]3C(=O)N[C@H](C(=O)N[C@H](C(=O)O)c4cc(O)cc(O)c4-c4cc3ccc4O)[C@H](O)c3ccc(c(Cl)c3)Oc3cc2cc(c3O[C@@H]2O[C@H](CO)[C@@H](O)[C@H](O)[C@H]2O[C@H]2C[C@](C)(N)[C@H](O)[C@H](C)O2)Oc2ccc(cc2Cl)[C@H]1O

Result:
[307, 172, 15, 2]

----------
Test system: E. coli cells transcribing antisense RNA to rplL and rplJ (AS-rplL/J)
Experiment: microbe, parasite or virus in culture
Format: cell-based
Conditions: statistically significant decrease in IC50 in the presence of inducer
Positions of bridges follow the written chain, without caps; N, C: chain ends. Non-standard residues stand in square brackets, D forms with d. Residues, ends and D or L forms follow the SMILES beside them. *: point of attachment. Ileψ(thiazoline)Cys = CC[C@H](C)[C@H](N)C1=N[C@H](C(=O)*)CS1; dOrn = NCCC[C@@H](N)C(=O)O
endpoint_name: Sensitivity (increased sensitivity observed in the presence of IPTG)

# compound, reported_value
data = [
    ("CO/N=C(\\C(=O)N[C@@H]1C(=O)N2C(C(=O)O)=C(COC(C)=O)CS[C@H]12)c1csc(N)n1 [Cefotaxime]", "No"),
    ("CC[C@H]1OC(=O)[C@H](C)[C@@H](O[C@H]2C[C@@](C)(OC)[C@@H](O)[C@H](C)O2)[C@H](C)[C@@H](O[C@@H]2O[C@H](C)C[C@H](N(C)C)[C@H]2O)[C@](C)(O)C[C@@H](C)C(=O)[C@H](C)[C@@H](O)[C@]1(C)O [Erythromycin]", "Yes"),
    ("CN[C@@H]1[C@H](O)[C@H](NC)[C@H]2O[C@@]3(O)C(=O)C[C@@H](C)O[C@H]3O[C@@H]2[C@H]1O [Spectinomycin]", "Yes"),
    ("NC[C@H]1O[C@H](O[C@H]2[C@H](O)[C@@H](O[C@H]3O[C@H](CO)[C@@H](O)[C@H](N)[C@H]3O)[C@H](N)C[C@@H]2N)[C@H](N)C[C@@H]1O [Tobramycin]", "Yes"),
    ("CC(=O)O[C@H]1C[C@@]2(C)[C@@H](C[C@@H](O)[C@H]3[C@@]4(C)CC[C@@H](O)[C@@H](C)[C@@H]4CC[C@@]32C)/C1=C(\\CCC=C(C)C)C(=O)O [Fusidic acid]", "Yes"),
    ("[H]/N=C(/N)N[C@H]1[C@H](O)[C@@H](O)[C@H](O[C@@H]2O[C@@H](C)[C@](O)(C=O)[C@H]2O[C@@H]2O[C@@H](CO)[C@H](O)[C@@H](O)[C@@H]2NC)[C@@H](N/C(N)=N\\[H])[C@@H]1O [Streptomycin]", "Yes"),
]

Can you give me Sensitivity (increased sensitivity observed in the presence of IPTG) for all of these, one by one?
1. CO[C@@]1(NC(=O)Cc2cccs2)C(=O)N2C(C(=O)O)=C(COC(N)=O)CS[C@@H]21 [Cefoxitin]
2. CCn1cc(C(=O)O)c(=O)c2ccc(C)nc21 [Nalidixic acid]
3. CC[C@H](C)[C@H](N)C1=N[C@H](C(=O)N[C@@H](CC(C)C)C(=O)N[C@H](CCC(=O)O)C(=O)N[C@H](C(=O)N[C@H]2CCCCNC(=O)[C@H](CC(N)=O)NC(=O)[C@@H](CC(=O)O)NC(=O)[C@H](Cc3cnc[nH]3)NC(=O)[C@@H](Cc3ccccc3)NC(=O)[C@H]([C@@H](C)CC)NC(=O)[C@@H](CCCN)NC2=O)[C@@H](C)CC)CS1 [Bacitracin] ({Ileψ(thiazoline)Cys}-L[dE]IK[dOrn]I[dF]H[dD]N; lactam 4-C)

Result:
1: No; 2: No; 3: No

Can you give me Sensitivity (increased sensitivity observed in the presence of IPTG) for all of these, one by one?
1. O=C(N[C@H](CO)[C@H](O)c1ccc([N+](=O)[O-])cc1)C(Cl)Cl [Chloramphenicol]
2. CN[C@H](CC(C)C)C(=O)N[C@H]1C(=O)N[C@@H](CC(N)=O)C(=O)N[C@H]2C(=O)N[C@H]3C(=O)N[C@H](C(=O)N[C@H](C(=O)O)c4cc(O)cc(O)c4-c4cc3ccc4O)[C@H](O)c3ccc(c(Cl)c3)Oc3cc2cc(c3O[C@@H]2O[C@H](CO)[C@@H](O)[C@H](O)[C@H]2O[C@H]2C[C@](C)(N)[C@H](O)[C@H](C)O2)Oc2ccc(cc2Cl)[C@H]1O [Vancomycin]
3. CCC[C@@H]1C[C@@H](C(=O)N[C@@H]([C@H]2O[C@H](SC)[C@H](O)[C@@H](O)[C@H]2O)[C@@H](C)O)N(C)C1 [Lincomycin]

Result:
Yes
No
Yes
